# Target or system: Focal adhesion kinase 1 (Homo sapiens) (UniProt Q05397)
# Sequence (Q05397 whole entry, looked up): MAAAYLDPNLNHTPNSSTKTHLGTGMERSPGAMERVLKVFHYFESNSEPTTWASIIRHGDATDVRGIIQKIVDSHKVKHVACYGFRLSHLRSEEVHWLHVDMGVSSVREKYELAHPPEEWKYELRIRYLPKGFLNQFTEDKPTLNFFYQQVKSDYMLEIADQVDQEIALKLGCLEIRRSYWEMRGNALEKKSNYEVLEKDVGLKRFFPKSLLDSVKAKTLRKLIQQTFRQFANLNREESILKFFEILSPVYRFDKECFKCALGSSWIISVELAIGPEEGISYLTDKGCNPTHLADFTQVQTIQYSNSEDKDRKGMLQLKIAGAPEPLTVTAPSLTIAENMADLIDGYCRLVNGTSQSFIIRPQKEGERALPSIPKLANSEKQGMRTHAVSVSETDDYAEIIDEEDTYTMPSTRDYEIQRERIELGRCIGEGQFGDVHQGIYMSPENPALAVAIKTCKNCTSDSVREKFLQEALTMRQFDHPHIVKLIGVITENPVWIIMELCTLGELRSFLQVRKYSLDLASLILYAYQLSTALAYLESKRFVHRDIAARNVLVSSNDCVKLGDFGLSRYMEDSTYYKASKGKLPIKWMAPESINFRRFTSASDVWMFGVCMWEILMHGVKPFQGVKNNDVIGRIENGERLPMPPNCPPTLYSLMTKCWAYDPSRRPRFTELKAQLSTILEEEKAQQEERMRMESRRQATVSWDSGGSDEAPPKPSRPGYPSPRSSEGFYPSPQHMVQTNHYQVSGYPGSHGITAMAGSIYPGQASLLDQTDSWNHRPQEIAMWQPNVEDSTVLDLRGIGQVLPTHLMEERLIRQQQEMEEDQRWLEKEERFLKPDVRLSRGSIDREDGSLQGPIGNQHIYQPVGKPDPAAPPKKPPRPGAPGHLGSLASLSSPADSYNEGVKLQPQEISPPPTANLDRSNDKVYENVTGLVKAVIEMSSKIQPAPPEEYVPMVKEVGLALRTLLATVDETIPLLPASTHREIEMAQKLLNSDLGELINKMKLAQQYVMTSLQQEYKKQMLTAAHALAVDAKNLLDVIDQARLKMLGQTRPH
# Protocol text: small-molecule microarray binders of FAK, primary screen, biochemical, 635/667 nm fluorescence, BSA, DTT (AID 1130);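 note: composite of spot emission at 667 nm and signal to noise over triplicate slides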
# Conditions: PTK2 binding, 635 nm fluorescence, higher = more signal
Measured property: composite z-score

Compound | Quantitative result
COCCOC(=O)N1C(=O)[C@@]2(c3cc(C#Cc4ccc(OC)cc4)ccc31)[C@H](c1ccccc1OCCO)N1[C@H](c3ccccc3)[C@H](c3ccccc3)OC(=O)[C@H]1[C@@H]2C(=O)N1CCN(c2ncccn2)CC1 | 0.863
O=C1C2C=CC(C(O)c3c(F)cccc3Cl)N(Nc3ccccc3)C2C(=O)N1c1ccccc1 (stereo unspecified) | 0.471
COCC(=C=CC[C@H](O)c1ccccc1OCCO)C[C@H](O)c1cc(Cl)cc(Cl)c1O | 0.469
COCCOC(=O)N1C(=O)[C@@]2(c3cc(C#Cc4ccc(OC)cc4)ccc31)[C@H](C(N)=O)[C@H]1C(=O)O[C@H](c3ccccc3)[C@H](c3ccccc3)N1[C@@H]2c1ccccc1OCCO | 0.861
C=CCNC(=O)[C@H]1[C@@H]2C(=O)O[C@@H](c3ccccc3)[C@@H](c3ccccc3)N2[C@@H](c2ccccc2OCCO)[C@]12C(=O)Nc1ccc(C#CC3=CCCCC3)cc12 | 0.26
COc1ccc([Si](C)(C)[C@H]2[C@H](CC(=O)N3CCC[C@H]3CO)O[C@@]3(C(=O)N(Cc4cccc(N5C(=O)c6cccc7cccc5c67)c4)c4ccccc43)[C@@H]2C)cc1 | 0.209
